- TEST SYSTEM: T1, 人CD38胞外区 (hCD38) with C-terminal His tag, hCD38-his (human (homo sapiens), UniProt P28907 43-300)
- T1 construct: Recombinant, made in HEK293 cells; not shown: His tag added at the C-terminus
- ASSAY SUMMARY: SPR (Biacore), antibody captured by anti-human Fc on CM5, hCD38 as analyte, 25 °C
PARAMETER: Kd (nM)
Just the number in nM, nothing appended.

S5B8VH-h1+S5B8VK-h1 (antibody, human IgG1, V domains shown, Humanized, expressed as a human IgG1 whole antibody; also called S5B8人源化分子) VH: QVQLVQSGAEVKKPGASVKVSCKASGYAFTNSWMHWVRQAPGQRLEWMGEIHPQSGRTNYNEKFKGRVTITRDTSASTAYMELSSLRSEDTAVYYCARDLLQFGNQYYYAMDYWGQGTLVTVSS VL: DVVMTQSPLSLPVTLGQPASISCRSSQSLVHSNGNTYLHWFQQRPGQSPRRLIYKVSNRFSGVPDRFSGSGSGTDFTLKISRVEAEDVGVYYCSQSTHVPLTFGQGTKLEIK; 0.371
S5B8VH-h2+S5B8VK-h1 (antibody, human IgG1, V domains shown, Humanized, expressed as a human IgG1 whole antibody; also called S5B8人源化分子) VH: QVQLVQSGAEVKKPGASVKVSCKASGYAFTNSWMHWVRQAPGQGLEWMGEIHPQSGRTNYNEKFKGRVTMTRDTSTSTVYMELSSLRSEDTAVYYCARDLLQFGNQYYYAMDYWGQGTLVTVSS VL: DVVMTQSPLSLPVTLGQPASISCRSSQSLVHSNGNTYLHWFQQRPGQSPRRLIYKVSNRFSGVPDRFSGSGSGTDFTLKISRVEAEDVGVYYCSQSTHVPLTFGQGTKLEIK; 0.406
S5B8 (mouse-human chimeric antibody, human IgG1) (antibody, V domains shown, Tested as a recombinant human IgG1-kappa/lambda mouse-human chimeric antibody; also called 鼠单抗S5B8) VH: QVQLQQSGSVLVRPGVSVKLSCKASGYAFTNSWMHWAKQRPGQGLEWIGEIHPQSGRTNYNEKFKGKATLTVDTSSSTAYVDFSSLTSEDSAVYYCARDLLQFGNQYYYAMDYWGQGTSVTVSS VL: DVVMTQTPLSLPVSLGDQASISCRSSQSLVHSNGNTYLHWYLQKPGQSPKLLIYKVSNRFSGVPDRFSGSGSGTDFTLKISRVEAEDLGVYFCSQSTHVPLTFGAGTKLEMK; 0.178
S5B8VH-h1+S5B8VK-h2 (antibody, human IgG1, V domains shown, Humanized, expressed as a human IgG1 whole antibody; also called S5B8人源化分子) VH: QVQLVQSGAEVKKPGASVKVSCKASGYAFTNSWMHWVRQAPGQRLEWMGEIHPQSGRTNYNEKFKGRVTITRDTSASTAYMELSSLRSEDTAVYYCARDLLQFGNQYYYAMDYWGQGTLVTVSS VL: DIVMTQTPLSLPVTPGEPASISCRSSQSLVHSNGNTYLHWYLQKPGQSPQLLIYKVSNRFSGVPDRFSGSGSGTDFTLKISRVEAEDVGVYYCSQSTHVPLTFGQGTKLEIK; 0.0894

QUERY: Quick one: Kd of S5B8VH-h2+S5B8VK-h2 (antibody, human IgG1, V domains shown, Humanized, expressed as a human IgG1 whole antibody; also called S5B8人源化分子) VH: QVQLVQSGAEVKKPGASVKVSCKASGYAFTNSWMHWVRQAPGQGLEWMGEIHPQSGRTNYNEKFKGRVTMTRDTSTSTVYMELSSLRSEDTAVYYCARDLLQFGNQYYYAMDYWGQGTLVTVSS VL: DIVMTQTPLSLPVTPGEPASISCRSSQSLVHSNGNTYLHWYLQKPGQSPQLLIYKVSNRFSGVPDRFSGSGSGTDFTLKISRVEAEDVGVYYCSQSTHVPLTFGQGTKLEIK ?
RESULT: 0.0486

The measured values listed here are drawn from patent CN108752475A.
